Biological target: FXR (Homo sapiens)
Construct: 5 μL of 20 nM FXR-LBD Complete Coregulator buffer G; purchased ThermoFisher PV4833
Sequence (Q96RI1 262-486 limits assumed): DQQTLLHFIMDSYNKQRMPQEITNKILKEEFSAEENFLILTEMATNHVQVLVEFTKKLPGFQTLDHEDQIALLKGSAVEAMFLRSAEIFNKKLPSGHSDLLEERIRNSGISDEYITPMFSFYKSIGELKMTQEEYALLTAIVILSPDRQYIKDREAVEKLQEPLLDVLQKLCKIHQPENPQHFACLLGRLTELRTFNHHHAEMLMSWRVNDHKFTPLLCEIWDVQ
Test: FXR antagonist screening by TR-FRET (LanthaScreen TR-FRET FXR co-activation assay kit)
Type: biochemical
Conditions: Table 1.2, FXR antagonistic activity; TR-FRET with CDCA; geometric means of at least two independent runs
RECORDED_METRIC: IC50

{"columns": ["MOL_SMILES", "EXPERIMENTAL_SYSTEM", "IC50"],
 "data": [
  ["CCOC(=O)c1sc2ccc(S(=O)(=O)N(CCc3ccc(OC)cc3)c3ccccc3N3CCN(C(=O)c4sccc4Br)CC3)cc2c1C", "FXR (Homo sapiens)", "50 to 100 µM"],
  ["CCOC(=O)c1oc2ccc(S(=O)(=O)N(CCc3ccccc3)c3ccccc3N3CCN(C(=O)c4sccc4C)CC3)cc2c1C", "FXR (Homo sapiens)", "50 to 100 µM"],
  ["CCOC(=O)c1oc2ccc(S(=O)(=O)N(CCc3ccccc3)c3ccccc3N3CCN(C(=O)c4cc[nH]n4)CC3)cc2c1C", "FXR (Homo sapiens)", "50 to 100 µM"],
  ["Cc1c(C(=O)O)n(C)c2ccc(S(=O)(=O)N(CCc3ccccc3)c3ccccc3N3CCN(C(=O)c4sccc4Br)CC3)cc12", "FXR (Homo sapiens)", "0.1 to 10 µM"],
  ["Cc1c(C(=O)O)sc2ccc(S(=O)(=O)N(CCc3cccc(Cl)c3)c3ccccc3N3CCN(C(=O)c4sccc4Br)CC3)cc12", "FXR (Homo sapiens)", "0.1 to 10 µM"]
]}

Given CCOC(=O)c1sc2ccc(S(=O)(=O)N(CCc3ccccc3OC)c3ccccc3N3CCN(C(=O)c4sccc4Br)CC3)cc2c1C , state its recorded IC50.
50 to 100 µM
